# Tested on: velvetleaf (Abutilon theophrasti, ABT)
# experiment.summary: Pre-emerge test, velvetleaf
# Type: in vivo
# condition.notes: 250 g ai/ha, 14 days after application, rating scale 0-100 (0 no damage, 100 complete death)
measurement.label: Pre-emerge Herbicidal Activity ABT (phytotoxicity rating)

molecule | quantitative.readout
Cn1nc(-c2c(F)cc3c4c2NC(=O)C(c2ccccc2)N4C(=O)CO3)c(Cl)c1C(F)(F)F (stereo not shown) | 100
O=C1CN2C(=O)COc3cc(F)c(N4C(=O)C5=C(CCCC5)C4=O)c(c32)N1 | 60
CCC1C(=O)Nc2c3c(cc(F)c2-n2nc(C)n(C(F)F)c2=O)OCC(=O)N31 (stereo not shown) | 100
CCC1C(=O)Nc2c(-c3ncc(C(F)(F)F)cc3Cl)c(F)cc3c2N1C(=O)CO3 (stereo not shown) | 100
Cn1nc(-c2c(F)cc3c4c2NC(=O)C(C)(C)N4C(=O)CO3)c(Cl)c1OC(F)F | 100
O=C1Nc2c(-c3ncc(C(F)(F)F)cc3Cl)c(F)cc3c2N(C(=O)CO3)C1c1ccccc1 (stereo not shown) | 99
CC1C(=O)Nc2c(-c3nn(C)c(OC(F)F)c3Cl)c(F)cc3c2N1C(=O)CO3 (stereo not shown) | 100
Cc1nn(-c2c(F)cc3c4c2NC(=O)CN4C(=O)CO3)c(=O)n1C(F)F | 100
CCC1C(=O)Nc2c(-c3nn(C)c(OC(F)F)c3Cl)c(F)cc3c2N1C(=O)C(C)(C)O3 (stereo not shown) | 100
Cn1nc(-c2c(F)cc3c4c2NC(=O)C(c2ccccc2)N4C(=O)CO3)c(Cl)c1OC(F)F (stereo not shown) | 100
C[C@H]1Oc2cc(F)c(-c3nn(C)c(C(F)(F)F)c3Cl)c3c2N(CC(=O)N3)C1=O | 100
Cn1nc(-c2c(F)cc3c4c2NC(=O)C(Cl)N4C(=O)CO3)c(Cl)c1OC(F)F (stereo not shown) | 75
Cn1c(C(F)(F)F)cc(=O)n(-c2c(F)cc3c4c2NC(=O)CN4C(=O)CO3)c1=O | 100
Cn1nc(-c2c(F)cc3c4c2NC(=O)CN4C(=O)C(C)(C)O3)c(Cl)c1OC(F)F | 100
Cn1nc(-c2c(F)cc3c4c2NC(=O)CN4C(=O)CO3)c(Cl)c1OC(F)F | 100
CC1Oc2cc(F)c(-c3nn(C)c(C(F)(F)F)c3Cl)c3c2N(C1=O)C(C)C(=O)N3 (mixture of isomers) [1-51] | 100
CCC1C(=O)Nc2c(-c3nn(C)c(OC(F)F)c3Cl)c(F)cc3c2N1C(=O)CO3 (stereo not shown) | 100
CC1Oc2cc(F)c(-c3nn(C)c(OC(F)F)c3Cl)c3c2N(C1=O)C(C)C(=O)N3 (mixture of isomers) | 100
CC1C(=O)N(C)c2c(-c3nn(C)c(OC(F)F)c3Cl)c(F)cc3c2N1C(=O)CO3 (stereo not shown) | 90
C[C@@H]1Oc2cc(F)c(-c3nn(C)c(C(F)(F)F)c3Cl)c3c2N(CC(=O)N3)C1=O | 100
C[C@H]1Oc2cc(F)c(-c3nn(C)c(OC(F)F)c3Cl)c3c2N(CC(=O)N3)C1=O | 99
CC1Oc2cc(F)c(-c3nn(C)c(OC(F)F)c3Cl)c3c2N(CC(=O)N3)C1=O (stereo not shown) | 100
CC(C)C1C(=O)Nc2c(N3C(=O)C4=C(CCCC4)C3=O)c(F)cc3c2N1C(=O)CO3 (stereo not shown) | 10
CC1C(=O)Nc2c(-c3nn(C)c(C(F)(F)F)c3Cl)c(F)cc3c2N1C(=O)C(C)(C)O3 (stereo not shown) | 100
O=C1CN2C(=O)COc3cc(F)c(-n4nnn(CCCF)c4=O)c(c32)N1 | 55
Cc1nn(-c2c(F)cc3c4c2NC(=O)C(C)N4C(=O)CO3)c(=O)n1C(F)F (stereo not shown) | 100
O=C1CN2C(=O)COc3cc(F)c(-c4ncc(C(F)(F)F)cc4Cl)c(c32)N1 | 100
Cn1nc(-c2c(F)cc3c4c2NC(=O)C(C)(C)N4C(=O)CO3)c(Cl)c1C(F)(F)F | 100
CC1C(=O)Nc2c(-c3nn(C)c(OC(F)F)c3Cl)c(F)cc3c2N1C(=O)C(C)(C)O3 (stereo not shown) | 100
CC1C(=O)Nc2c3c(cc(F)c2-n2c(=O)cc(C(F)(F)F)n(C)c2=O)OCC(=O)N31 (stereo not shown) | 100
Cn1nc(-c2c(F)cc3c4c2NC(=O)CN4C(=O)C(C)(C)O3)c(Cl)c1C(F)(F)F | 100
CC1C(=O)Nc2c(-c3ncc(C(F)(F)F)cc3Cl)c(F)cc3c2N1C(=O)CO3 (stereo not shown) | 100
Cn1nc(-c2c(F)cc3c4c2NC(=O)CN4C(=O)CO3)c(Cl)c1C(F)(F)F | 100
CC1Oc2cc(F)c(-c3nn(C)c(C(F)(F)F)c3Cl)c3c2N(C1=O)C(C(C)C)C(=O)N3 (mixture of isomers) | 100
